System: MS2 coat protein
Assay: apparent KD of MS2 coat protein; designed switch direction (-1 OFF switch, 1 ON switch): -1; higher = weaker reporter binding
Conditions: Eterna round: R95; input ligand: FMN 200 uM
Just so you know, the groups by apparent KD of MS2 coat protein go like this: low group = under 40 nM, middle group = from 40 nM up to 100 nM, high group = 100 nM and over

Use these answered entries as a reference point.
GCAGGAUAAGUCAGGAUAUACCUAUGGAUACAUAGGUAGAAGGGACAUGAGGAUCACCCAUGUGACUCACCUGC [Fiskers BMX 4 - 62] (puzzle: Brourd's mod of Exclusion 4) ... middle group
AGUACUAACCCGAAAGUGUUAGUACAAUAAGCUUGUGAAACAUGAGGAUCACCCAUGUCCUCAUAAGCUCGUCUUAU [salish99_TOv2_r3_024] (puzzle: Sensor v3, turn-off variant 2) ... low group
AAAACACAUGAGGAUCACCCAUGUGAGGAUAUGUCCAUAUUCGGCAAAUCGGAUAUGGACAGAAGGCACAUAAA [JR_Exclusion1_Sub014] (puzzle: Exclusion 1) ... middle group
CAGUACUGAGGAUAUACAUGAGGAUCACCCAUGUGGUCCAGCUAGGAAACUAGCAAAAGUAGAAGGCAGUACUG [salish99_ex3_r3_083] (puzzle: Exclusion 3) ... low group
CUGAGGUAGCGGUCCUAUGACAUGAGGAUCACCCAUGUACCUUGCUUUGAGCUUUUUGCUCGUCUUAUGAUUCUCGG [JL Atriat mod 6] (puzzle: Sensor v3, turn-off variant 1) ... high group

Consider the additional sequence presented here.
Ask | In plain terms, what class is AAGUACCGUCACGAUAGUGAUGGUACAGCAAGCAUGUAAACAUGAGGAUCACCCAUGUCCUCAAUUGCUCGUCUUAU [Sensor 3 - 70] (puzzle: Sensor v3, turn-off variant 2) ?
Reply | high group

The origin of these recorded values is the supplement of paper PMC9170038.
